Measured Kd values are reported for all entries that follow.
- assayed.target: T1, human CD3 (huCD3ed) (human, UniProt P07766 23-126; P04234 22-105)
- T1 construct: Soluble analyte in SPR; The delta chain is inferred from the label 'ed'; also called hCD3ed; hCD3
- T1 sequence (P07766 23-126, chain 1 of 2): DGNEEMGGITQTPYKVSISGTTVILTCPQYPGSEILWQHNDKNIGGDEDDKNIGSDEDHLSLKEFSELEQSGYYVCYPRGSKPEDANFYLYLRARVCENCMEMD
- T1 sequence (P04234 22-105, chain 2 of 2): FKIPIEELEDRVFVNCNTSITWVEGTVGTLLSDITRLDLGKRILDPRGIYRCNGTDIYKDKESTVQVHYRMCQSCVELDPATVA
- protocol.details: SPR (ProteOn XPR36), IgG on chip, huCD3ed analyte, 37 C; column head says nM but kd/ka gives this number in M
Report the value in nM with no unit label.

Below, 4 binders whose answers are already recorded.
h2B4 (antibody, V domains shown, Anti-CD3; tested as human IgG immobilised on the chip; also called h2B4-1d) VH: EVQLVESGGGLVQPGGSLRLSCAASGFTFSDYYMTWVRQAPGKGLEWVAFIRNRARGYTSDHNASVKGRFTISRDNAKNSLYLQMNSLRAEDTAVYYCARDRPSYYVLDYWGQGTTVTVSS VL: DIVMTQSPDSLAVSLGERATINCTSSQSLFNVRSRKNYLAWYQQKPGQPPKLLISWASTRESGVPDRFSGSGSGTDFTLTISSLQAEDVAVYYCKQSYDLFTFGSGTKLEIK; 31.4
h2B4-VH-yaps VL_TK (antibody, V domains shown, Anti-CD3) VH: EVQLVESGGGLVQPGGSLRLSCAASGFTFSDYYMTWVRQAPGKGLEWVAFIRNRARGYTSDYAPSVKGRFTISRDNAKNSLYLQMNSLRAEDTAVYYCARDRPSYYVLDYWGQGTTVTVSS VL: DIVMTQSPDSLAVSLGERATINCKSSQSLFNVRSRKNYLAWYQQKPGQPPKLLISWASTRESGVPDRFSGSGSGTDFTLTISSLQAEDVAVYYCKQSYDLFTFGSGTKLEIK; 92
h2B4-VH-yaes VL_TK (antibody, V domains shown, Anti-CD3; also called h2B4-yaesTK) VH: EVQLVESGGGLVQPGGSLRLSCAASGFTFSDYYMTWVRQAPGKGLEWVAFIRNRARGYTSDYAESVKGRFTISRDNAKNSLYLQMNSLRAEDTAVYYCARDRPSYYVLDYWGQGTTVTVSS VL: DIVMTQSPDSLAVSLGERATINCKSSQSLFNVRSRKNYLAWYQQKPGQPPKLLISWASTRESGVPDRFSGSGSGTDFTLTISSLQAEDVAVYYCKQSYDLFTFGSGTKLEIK; 100
h2B4-VH-wt VL_TK (antibody, V domains shown, Anti-CD3; also called h2B4-TK) VH: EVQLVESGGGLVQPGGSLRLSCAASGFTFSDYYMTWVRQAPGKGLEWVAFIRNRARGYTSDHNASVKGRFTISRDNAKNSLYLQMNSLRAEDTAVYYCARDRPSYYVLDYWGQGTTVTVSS VL: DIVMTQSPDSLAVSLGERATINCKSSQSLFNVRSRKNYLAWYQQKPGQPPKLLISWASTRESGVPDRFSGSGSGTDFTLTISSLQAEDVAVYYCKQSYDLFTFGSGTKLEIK; 38

Req: Please report the recorded Kd for h2B4-VH-hnps VL_TK (antibody, V domains shown, Anti-CD3; also called h2B4-hnpsTK) VH: EVQLVESGGGLVQPGGSLRLSCAASGFTFSDYYMTWVRQAPGKGLEWVAFIRNRARGYTSDHNPSVKGRFTISRDNAKNSLYLQMNSLRAEDTAVYYCARDRPSYYVLDYWGQGTTVTVSS VL: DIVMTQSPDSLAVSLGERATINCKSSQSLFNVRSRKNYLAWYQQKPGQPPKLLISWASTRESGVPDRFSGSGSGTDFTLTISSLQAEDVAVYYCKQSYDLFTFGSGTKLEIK .
Resp: 41

Req: Please report the recorded Kd for h2B4-VH-yads VL_TK (antibody, V domains shown, Anti-CD3) VH: EVQLVESGGGLVQPGGSLRLSCAASGFTFSDYYMTWVRQAPGKGLEWVAFIRNRARGYTSDYADSVKGRFTISRDNAKNSLYLQMNSLRAEDTAVYYCARDRPSYYVLDYWGQGTTVTVSS VL: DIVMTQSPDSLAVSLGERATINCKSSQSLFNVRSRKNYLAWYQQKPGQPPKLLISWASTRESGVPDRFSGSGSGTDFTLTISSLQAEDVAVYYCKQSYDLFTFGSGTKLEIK .
Resp: 86
